Reference source for all entries: patent US20240400701A1

- assayedSystem: T1, human AMHRII (anti-Mullerian hormone receptor type 2) (human, UniProt Q16671 18-573)
- T1 construct: whole, on cells; also called AMHR2; human AMHR2
- T1 sequence (looked up): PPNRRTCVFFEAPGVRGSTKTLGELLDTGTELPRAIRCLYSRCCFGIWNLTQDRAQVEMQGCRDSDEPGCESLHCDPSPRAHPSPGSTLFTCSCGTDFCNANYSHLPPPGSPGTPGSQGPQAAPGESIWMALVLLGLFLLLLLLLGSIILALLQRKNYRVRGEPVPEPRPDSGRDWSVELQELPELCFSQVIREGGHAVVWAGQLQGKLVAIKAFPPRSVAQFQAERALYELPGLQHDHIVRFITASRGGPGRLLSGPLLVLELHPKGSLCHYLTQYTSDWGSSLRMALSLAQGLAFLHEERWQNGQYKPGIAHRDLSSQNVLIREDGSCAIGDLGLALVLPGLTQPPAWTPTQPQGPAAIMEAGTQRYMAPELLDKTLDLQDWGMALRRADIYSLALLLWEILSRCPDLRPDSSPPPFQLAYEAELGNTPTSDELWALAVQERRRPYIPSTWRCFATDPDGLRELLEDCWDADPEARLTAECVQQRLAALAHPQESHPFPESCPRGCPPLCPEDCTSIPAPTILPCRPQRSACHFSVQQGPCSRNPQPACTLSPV
- procedureText: FACS on CHO-K1 cells over-expressing human AMHR2
Listing: Top (MFI) of selected binders
Give the value, in units of MFI, as a plain number.

Example entries begin here.
>>> measvalue("xi31D9B3 hIgG1 (antibody, V domains shown, Murine variable domains in human chimeric format, human IgG1; also called xi31D9B3 hlgG1; 31D9B3 hlgG1) VH: QVKLLQSGAALVKPGASVKMSCKASGYTFTDYWVSWVKQSHGKSLEWIGEIYPKNGVSNFNEKFKGKATLTVDKSTSTAYMELRRLTSEDSAIFYCTRQRDYWGQGVMVTVSS VL: DVVLTQTPGSLSVTLGDQASISCRSSQSLEYGDGYTYLEWYLQKPGQSPQLLIYGVSNRFSGVPDRFIGSGSGTDFTLKISRVEPEDLGVYYCFQATHDPNTFGAGTKLELK")
26200
>>> measvalue("108F3D1E9 H1L2 hIgG1 (antibody, V domains shown, Humanized, human IgG1; also called 108F3D1E9 H1L2 hlgG1) VH: QLQLQESGPGLVKPSETLSLTCTVSGYSITSDFAWNWIRQPPGKGLEWIGYISFSGSTSYNPSLKSRVTISVDTSKNQFSLKLSSVTAADTAVYYCARSRYSWFAYWGQGTLVTVSS VL: DIQLTQSPSSLSASVGDRVTITCRASESVDTYGNSFMHWYQQKPGKPPKLLIYRASNLESGIPSRFSGSGSGTDFTLTISSLQPEDFATYYCQQSNEDPYTFGGGTKVEIK")
64600
>>> measvalue("94C4C3 H2L1 hIgG1 (antibody, V domains shown, Humanized, human IgG1; also called 94C4C3 H2L1 hlgG1) VH: QLQLQESGPGLVKPSETLSLTCTVSGYSITSDYAWNWIRQPPGKGLEWMGYISYSGSISYNPSLKSRITISRDTSKNQFSLKLSSVTAADTAVYYCARSRYSWFDYWGQGTLVTVSS VL: EIVLTQSPGTLSLSPGERATLSCSASESVDTYGNSFMHWYQQKPGQAPRLLIYRASSLESGIPDRFSGSGSGTDFTLTISRLEPEDFAVYYCQQSNEDPYTFGGGTKVEIK")
52800

Now consider a different binder.
Data request: Quickly give me recorded Top (MFI) for 94C4C3 H1L3 hIgG1 (antibody, V domains shown, Humanized, human IgG1; also called 94C4C3 H1L3 hlgG1) VH: QLQLQESGPGLVKPSETLSLTCTVSGYSITSDYAWNWIRQPPGKGLEWIGYISYSGSISYNPSLKSRVTISVDTSKNQFSLKLSSVTAADTAVYYCARSRYSWFDYWGQGTLVTVSS VL: EIVLTQSPGTLSLSPGERATLSCSASESVDTYGNSFMHWYQQKPGQPPRLLIYRASSLESGIPVRFSGSGSRTDFTLTISRVEAEDFAVYYCQQSNEDPYTFGGGTKLEIK
Data returned: 50200
